# target_entity: BMPRII (Homo sapiens)
# Sequence (Q13873 27-1038): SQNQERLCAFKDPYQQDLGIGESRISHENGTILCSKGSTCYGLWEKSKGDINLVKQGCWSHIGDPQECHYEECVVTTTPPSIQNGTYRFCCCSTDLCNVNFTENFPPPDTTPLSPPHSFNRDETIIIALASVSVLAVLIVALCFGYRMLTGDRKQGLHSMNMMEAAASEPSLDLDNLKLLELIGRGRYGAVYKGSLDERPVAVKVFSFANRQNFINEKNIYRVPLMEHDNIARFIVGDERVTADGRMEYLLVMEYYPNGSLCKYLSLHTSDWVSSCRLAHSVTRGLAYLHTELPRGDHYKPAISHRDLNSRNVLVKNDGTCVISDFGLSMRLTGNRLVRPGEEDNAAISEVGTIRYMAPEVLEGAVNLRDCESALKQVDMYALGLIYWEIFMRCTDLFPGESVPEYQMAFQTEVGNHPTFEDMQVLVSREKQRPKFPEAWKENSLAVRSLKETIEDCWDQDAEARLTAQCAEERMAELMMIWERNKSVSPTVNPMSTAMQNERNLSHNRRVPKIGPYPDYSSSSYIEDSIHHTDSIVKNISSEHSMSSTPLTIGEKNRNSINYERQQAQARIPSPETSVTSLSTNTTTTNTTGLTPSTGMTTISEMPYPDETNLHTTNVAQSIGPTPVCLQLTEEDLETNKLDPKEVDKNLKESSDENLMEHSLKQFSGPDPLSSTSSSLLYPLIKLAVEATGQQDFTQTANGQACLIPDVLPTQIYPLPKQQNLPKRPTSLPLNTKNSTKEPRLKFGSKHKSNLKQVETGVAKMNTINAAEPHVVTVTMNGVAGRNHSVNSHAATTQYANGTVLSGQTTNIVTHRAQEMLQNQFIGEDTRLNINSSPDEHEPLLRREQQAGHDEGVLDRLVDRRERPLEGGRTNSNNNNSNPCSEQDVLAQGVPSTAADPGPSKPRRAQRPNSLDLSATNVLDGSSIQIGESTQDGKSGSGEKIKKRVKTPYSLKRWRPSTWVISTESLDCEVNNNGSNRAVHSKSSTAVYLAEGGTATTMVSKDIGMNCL

compound | IC50
c1ccc2c(-c3cnn4cc(-c5ccc(OCCN6CCOCC6)cc5)cnc34)ccnc2c1 [DMH2] | 7.95 µM

FYI, the data here is from paper PMC4822253.
